# System: T1, Extracellular domain (ECD) of the canine IL-4 receptor alpha-V5 epitope-AviTag-His Tag (canine)
# T1 construct: monomeric form isolated by size exclusion; also called canine IL-4RA-V5-Avi-His; canine IL-4RA
# T1 chain: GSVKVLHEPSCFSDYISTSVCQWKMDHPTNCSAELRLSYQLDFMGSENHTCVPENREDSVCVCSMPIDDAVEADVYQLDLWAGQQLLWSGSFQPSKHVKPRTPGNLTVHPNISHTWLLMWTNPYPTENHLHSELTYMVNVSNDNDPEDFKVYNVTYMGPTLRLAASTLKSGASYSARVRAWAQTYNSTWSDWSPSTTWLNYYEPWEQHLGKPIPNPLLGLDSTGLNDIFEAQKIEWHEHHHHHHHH
# Test Description: SPR, Fab-SASA captured on BSA;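 also: biacore T200 SPR, Fab-SASA variants from E. coli conditioned medium captured on BSA-coated CM5 chip, canine IL-4RA injected 120 s then 420 s dissociation, 1:1 model fit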
Readout Name: kon

Some binders with recorded kon:
{"columns": ["Binder", "Recorded Result"],
 "data": [
  ["TB640_005 Fab-SASA VL-S57N (Fab, V domains shown, not shown: SASA tag then His-tag) VH: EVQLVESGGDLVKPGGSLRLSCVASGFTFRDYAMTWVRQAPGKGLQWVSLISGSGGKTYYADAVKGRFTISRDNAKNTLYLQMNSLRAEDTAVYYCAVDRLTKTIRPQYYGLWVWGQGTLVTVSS VL: DIVMTQTPLSLSVSPGETASISCRSSQSLLYSIGYNYLDWYLQKPGQSPQGLIYLGNKRASGVPDRFSGSGSGTDFTLRISRVEANDTGVYYCMQGLQSPLTFGQGTKLEIKR", "81800 M⁻¹ s⁻¹"],
  ["TB640_005 Fab-SASA VH-Y110L (Fab, V domains shown, not shown: SASA tag then His-tag) VH: EVQLVESGGDLVKPGGSLRLSCVASGFTFRDYAMTWVRQAPGKGLQWVSLISGSGGKTYYADAVKGRFTISRDNAKNTLYLQMNSLRAEDTAVYYCAVDRLTKTIRPQYLGLWVWGQGTLVTVSS VL: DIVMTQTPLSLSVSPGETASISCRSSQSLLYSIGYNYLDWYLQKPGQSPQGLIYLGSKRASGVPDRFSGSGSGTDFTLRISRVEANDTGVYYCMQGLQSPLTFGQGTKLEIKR", "202000 M⁻¹ s⁻¹"]
]}

Next:
Task: Read the entry TB640_005 Fab-SASA VL-S57H (Fab, V domains shown, not shown: SASA tag then His-tag) VH: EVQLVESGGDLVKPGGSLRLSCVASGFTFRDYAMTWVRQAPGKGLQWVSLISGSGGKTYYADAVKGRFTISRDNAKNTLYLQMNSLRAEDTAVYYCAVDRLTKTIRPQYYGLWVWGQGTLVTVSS VL: DIVMTQTPLSLSVSPGETASISCRSSQSLLYSIGYNYLDWYLQKPGQSPQGLIYLGHKRASGVPDRFSGSGSGTDFTLRISRVEANDTGVYYCMQGLQSPLTFGQGTKLEIKR and write its reported kon.
Output: 82600 M⁻¹ s⁻¹
